Documented BRET of receptor-RLuc8 with Arrestin 3-YFP: Log EC50 (M) across a set of binders
# testTarget: T1, FLAG-Mm_Fpr1 C-terminally fused to Renilla Luciferase 8 (mouse, UniProt P33766 1-364)
# T1 sequence (looked up): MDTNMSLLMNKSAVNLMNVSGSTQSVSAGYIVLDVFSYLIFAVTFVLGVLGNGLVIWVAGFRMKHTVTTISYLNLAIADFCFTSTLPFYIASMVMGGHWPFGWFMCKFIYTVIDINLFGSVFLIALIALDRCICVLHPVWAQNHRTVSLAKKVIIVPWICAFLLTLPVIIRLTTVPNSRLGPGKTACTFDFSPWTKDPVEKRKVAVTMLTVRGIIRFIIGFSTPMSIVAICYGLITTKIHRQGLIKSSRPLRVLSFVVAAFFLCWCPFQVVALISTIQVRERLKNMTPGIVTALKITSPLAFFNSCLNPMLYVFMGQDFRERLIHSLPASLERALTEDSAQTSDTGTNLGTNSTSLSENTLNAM
# protocolDescription: cell-based or functional assay
Where no end group is shown, it is not given here. [ ]: non-standard residue; d: D form. The star is where a group is joined. For = O=C*
# value in log M; strip the unit string

WKYMVM (synthetic hexapeptide, all L residues; also called L-enantiomer of WKYMVm; source: bought: Tocris) :: -5.56

### Prompt So what does the record say about BRET of receptor-RLuc8 with Arrestin 3-YFP: Log EC50 (M) for WKYMV[dM] (the last residue is the D form; the bought peptide is probably also an amide (surmise); source: bought: Tocris) [WKYMVm] ?
### Response -6.8

### Prompt So what does the record say about BRET of receptor-RLuc8 with Arrestin 3-YFP: Log EC50 (M) for For-MLFK [fMet-Leu-Phe-Lys (fMLFK)] ?
### Response -5.14

### Prompt So what does the record say about BRET of receptor-RLuc8 with Arrestin 3-YFP: Log EC50 (M) for For-Met-Leu-Phe [fMet-Leu-Phe (fMLF)] ?
### Response -4.68

FYI, the data here is from paper PMC12881670.
